Form field: PBM binding z-score (one value per entry).
system: LXRb:RXRa (NR concentration 270 nM, RXRa partner concentration 90 nM); test: PBM binding z-score (relative to random genomic background probes); higher = stronger binding; sequences stand for … in GC…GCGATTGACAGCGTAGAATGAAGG
outcome.measure: PBM binding z-score

>>> data_value("GGAACGAGGGCAAGGTTGATAGCATCTGTCGACG")
0.32
>>> data_value("CCTTACGGGTCACGAGGTTCTAGCACGACGAGCG")
3.53
>>> data_value("ACTATGAGTTGACTTAGGGCAACCGATACGACGC")
0.365

---

Form field: PBM binding z-score (one value per entry).
system: PPARg:RXRa DBDmut IVT, anti-RXR (DBD mutation: RXRa K156A/R161A, NR concentration 270 nM, RXRa partner concentration 90 nM); experiment: PBM binding z-score (relative to random genomic background probes); higher = stronger binding; sequences stand for … in GC…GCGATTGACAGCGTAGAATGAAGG
outcome.measure: PBM binding z-score

>>> data_value("ACTAGCAGGCTAAGGGTCACTCAAGATTAGTCCG")
0.414
>>> data_value("ACTATTAGTTAACTTAGGGCAACCGATACGACGC")
0.0765
>>> data_value("GCGACTGGGGCACCAGCAGGTTACCATAACTTAA")
4.23
>>> data_value("CGTCCAAGGCCAAGGTCAGTGAAAGAGACTCGAA")
0.486
>>> data_value("GATACAGGGTAAAGGCCAGAGTACGCGTATTGAT")
1.02
>>> data_value("CAAACTAGGTCAAACGTCAAAGTCGAGCCAACCA")
8.33
>>> data_value("TGTCATAGTTCAAAGGTAACGTAAGTATCCACAC")
-0.243
>>> data_value("CCTAGTTGGTCAGGAGGTCACACTCCGGATATGA")
2.49
>>> data_value("CCTACTGGGCCATCAAGTCATTGATATCAACGTT")
3.82
>>> data_value("TCATATAGGTAATACAGGTGCAAGTCGGCATCTA")
3.87
>>> data_value("TCATATAGGTAAAGGTGAAAATCGAACGATATGA")
3.76
>>> data_value("AGACAAAGTTCACTAGGTAACGTAAGATTCAGCT")
2.37
>>> data_value("GCGACTGGGGCATTAGCAGGTTACCATAACTTAA")
3.92
>>> data_value("TGTCCAAGTTCAAAGGTAACGTAAGTATCCACAC")
-0.319
>>> data_value("CCTGCTAGGTCATAGTCAGCTAATCTACAGTATG")
3.96
>>> data_value("ATCTCTAGGTAAAGTTAGTTCAGTGAATGCAAAT")
2.54
>>> data_value("GCATTTAGGTAATACAAGGTGAAAGTCCGATTGT")
3.13
>>> data_value("GCGACTGGGGCAAAGCAGGTTAACATAAGGTTGG")
4.62
>>> data_value("CCGACTGGGGCAGAGGTTACCATACTCAGTACGA")
3.08
>>> data_value("TATACAGGTTCAAAGGCCAGAGTACGAATGTCGA")
0.255
>>> data_value("TCGTGTAGGTTAGTCGGGGCATTCAGCCAACATA")
2.15
>>> data_value("GAAACAGGGTCAGCTAGAGGCCAGAGTATGGAAA")
2.53
>>> data_value("CCAGATAGGTGAGAAGGTAACTCAGCCTCGATTA")
2.53
>>> data_value("AGAACGAGGGCACGCTGGGTTGATAGCAGAGTAG")
3.63
>>> data_value("TCATATAGGTAAAAGGGGAAAGTCGGTGTGGTAA")
4.82
>>> data_value("TTACCAAGGTGAAAGGTCGTTGGTGCACGCCTTG")
3.18
>>> data_value("ATCTCTTGGTAAAGATAGTTCAGTGAATGCAAAT")
-0.0767
>>> data_value("TCTCGGAGGACACGTAGGTCAGAGCTTTCCAGAG")
1.13
>>> data_value("GCGACTAGGGCATCAGCAGGTTACCATAACTTAA")
4.76
>>> data_value("TAGCCTAGGTCAGATCGGGCCAATATACGCTATA")
0.525
>>> data_value("GCAGACAGGTGAAACGCAGGTAACTCGGGGTGGC")
0.722
>>> data_value("CCTTCCGGGTCACTCCAGGTTATAGCATCGGAGT")
3.76
>>> data_value("CGTCAAAGTTCAACTTAGGTAACGTAAAGCACGC")
-0.00853
>>> data_value("ATCTCAAGGTAAAAGTTCAGTGAATCCCGAGGAT")
-0.133
>>> data_value("ATATGTAGGCTAGCTGGGGTCATTCAGACTAGGC")
4.55
